Molecular target: T1, human vascular endothelial growth factor receptor-2 Fc chimera (KDR-Fc) (human, UniProt P35968 20-764)
T1 construct: range 1-764; also called human VEGFR-2; VEGF-R2-Fc; not shown: human IgG1 Fc
T1 sequence (P35968 20-764 limits assumed, change not shown, form in doubt): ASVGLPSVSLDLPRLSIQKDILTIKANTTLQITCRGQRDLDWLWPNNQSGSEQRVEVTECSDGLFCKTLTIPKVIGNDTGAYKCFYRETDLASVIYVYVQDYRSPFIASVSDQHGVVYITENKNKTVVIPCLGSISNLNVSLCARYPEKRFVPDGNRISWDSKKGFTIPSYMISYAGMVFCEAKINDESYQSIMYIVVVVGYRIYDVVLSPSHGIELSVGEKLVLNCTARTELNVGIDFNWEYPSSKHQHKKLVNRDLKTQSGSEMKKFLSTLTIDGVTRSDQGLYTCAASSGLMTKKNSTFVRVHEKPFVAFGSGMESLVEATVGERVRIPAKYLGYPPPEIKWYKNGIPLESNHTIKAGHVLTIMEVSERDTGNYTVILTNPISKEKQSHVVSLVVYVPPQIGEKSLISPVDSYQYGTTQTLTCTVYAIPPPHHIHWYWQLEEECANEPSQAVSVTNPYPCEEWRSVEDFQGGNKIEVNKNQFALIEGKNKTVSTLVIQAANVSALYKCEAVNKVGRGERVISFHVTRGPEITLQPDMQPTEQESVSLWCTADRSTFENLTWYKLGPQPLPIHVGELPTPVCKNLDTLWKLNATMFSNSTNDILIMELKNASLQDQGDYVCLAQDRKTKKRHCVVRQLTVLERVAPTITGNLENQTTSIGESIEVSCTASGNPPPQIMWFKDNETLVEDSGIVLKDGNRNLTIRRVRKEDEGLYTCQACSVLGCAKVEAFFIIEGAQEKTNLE
Assay: radioactive equilibrium binding, 1 nM KDR-Fc
measurement.type: Binding to 1 nM KDR, % (%)

I. 2′DelE4 PR4 (designed binder, Del 1-8) EVVAATPTSLLISWRHPHFPTRYYRITYGETGGNSPVQEFTVPLQPPTATISGLKPGVDYTITGYAVTVHWNGHELMTPISINYRT
II. 4F4 PR3 (designed binder, Del 1-8) EVVAATPTSLLISWRHPHFPTRYYRITYGETGGNSPVQEFTVPLQPPTATISGLKPGVDYTITGYAVTLAQNDRELITPISINYRT
Task: Among I and II , which shows a numerically higher Binding to 1 nM KDR, % result? Respond with the label that goes with your answer.
Result: I
